Sourced from patent US12522594B2

Biological target: AHR (Homo sapiens, UniProt P35869)
Sequence (P35869 11-848): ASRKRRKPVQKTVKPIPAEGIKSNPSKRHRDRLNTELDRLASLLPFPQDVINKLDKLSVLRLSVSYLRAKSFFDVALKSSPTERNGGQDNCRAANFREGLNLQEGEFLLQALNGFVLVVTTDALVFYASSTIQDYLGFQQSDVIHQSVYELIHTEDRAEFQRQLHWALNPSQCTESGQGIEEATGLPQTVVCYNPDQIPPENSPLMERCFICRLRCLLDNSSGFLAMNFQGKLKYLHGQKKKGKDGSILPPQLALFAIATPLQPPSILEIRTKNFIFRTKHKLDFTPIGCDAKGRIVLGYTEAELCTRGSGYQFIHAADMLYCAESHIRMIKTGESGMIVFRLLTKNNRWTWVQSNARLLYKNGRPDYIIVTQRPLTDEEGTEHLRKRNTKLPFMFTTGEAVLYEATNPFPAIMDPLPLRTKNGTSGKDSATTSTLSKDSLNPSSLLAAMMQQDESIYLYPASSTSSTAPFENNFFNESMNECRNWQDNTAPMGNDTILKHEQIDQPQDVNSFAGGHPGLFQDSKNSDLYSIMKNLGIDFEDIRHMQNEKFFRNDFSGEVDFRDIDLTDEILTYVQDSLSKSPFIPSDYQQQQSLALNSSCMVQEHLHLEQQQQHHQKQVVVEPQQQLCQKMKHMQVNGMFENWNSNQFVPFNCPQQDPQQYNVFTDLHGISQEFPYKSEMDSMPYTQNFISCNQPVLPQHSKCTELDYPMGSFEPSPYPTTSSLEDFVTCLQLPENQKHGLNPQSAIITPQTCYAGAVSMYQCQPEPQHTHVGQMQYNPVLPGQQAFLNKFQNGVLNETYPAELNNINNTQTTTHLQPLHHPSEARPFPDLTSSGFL
Assay: In vitro assay 1: antagonism in human cell line (transactivation assay, U87 cells prestimulated with kynurenic acid, DRE firefly luciferase reporter)
Type: cell-based
Design: host or cells: U87 glioblastoma cells, stably transfected with DRE firefly luciferase and renilla reporter constructs
Settings: 150 uM kynurenic acid, 20 hours, read-out: Assay 1: AHR-luc Hum Antagonism IC50
pIC50: −log10 of the molar value.
Quantity Measured: pIC50

Example entries and their recorded answers appear below.
molecule="C[C@@H](CO)NC(=O)c1cc(-c2ccc(N(C)C)cc2)nn(-c2cnn(C)c2)c1=O [Example 311]" reading=8.74
molecule="O=C(NC[C@H](O)C(F)(F)F)c1cc(-c2ccc(Cl)cc2)nn(-c2cnn(C(F)F)c2)c1=O [Example 256]" reading=7.59
molecule="C[C@@H](CO)NC(=O)c1cc(-c2ccc(Cl)cc2)nn(-c2ccc(F)s2)c1=O [Example 220]" reading=8.47
molecule="CC(C)(O)C(NC(=O)c1cc(-c2ccc(Cl)cc2)nn(-c2cccnc2)c1=O)C(F)(F)F (single isomer, unassigned; enantiomer 2) [Example 123]" reading=8.24
molecule="Cn1cc(-n2nc(-c3ccc(C(F)(F)F)cc3)cc(C(=O)N[C@@H]3CCC[C@@H]3O)c2=O)cn1 [Example 239]" reading=8.00
molecule="O=C(NC(CO)CO)c1cc(-c2ccc(C(F)(F)F)cc2)nn(-c2cccnc2)c1=O [Example 116]" reading=6.94
molecule="Cc1ccc(-c2cc(C(=O)NCC(O)C(F)(F)F)c(=O)n(-c3cnn(C)c3)n2)cc1 (single isomer, unassigned; enantiomer 1) [Example 11]" reading=8.34
molecule="O=C(NC(CO)C1CC1)c1cc(-c2ccc(Cl)cc2)nn(-c2cccnc2)c1=O (single isomer, unassigned; (+)) [Example 91]" reading=7.32

(a) C[C@@H](CO)NC(=O)c1cc(-c2ccc(C(F)(F)F)cc2)nn(-c2cnsc2)c1=O [Example 205]
(b) Cn1cc(-n2nc(-c3ccc(OC(F)F)cc3)cc(C(=O)NC(C(C)(C)O)C(F)(F)F)c2=O)cn1 (single isomer, unassigned) [Example 307]
(c) O=C(NC[C@H](O)CO)c1cc(-c2ccc(Cl)cc2)nn(-c2cccnc2)c1=O [Example 72]
(d) O=C(NC[C@H](O)C(F)(F)F)c1cc(-c2ccc(OC(F)F)cc2)nn(-c2cccnc2)c1=O [Example 314]
Ascending by pIC50, please. Answer with the labels in sequence, matching the requested order. c, b, d, a
